B1: KIAA1614 peptide 568-583 (uncharacterized protein KIAA1614), 16-mer library wild type / USP8 rhodanese domain (ubiquitin carboxyl-terminal hydrolase 8, residues 174-317) (parent)
chain 1: GMERVLGGLSSPLRLL
chain 2: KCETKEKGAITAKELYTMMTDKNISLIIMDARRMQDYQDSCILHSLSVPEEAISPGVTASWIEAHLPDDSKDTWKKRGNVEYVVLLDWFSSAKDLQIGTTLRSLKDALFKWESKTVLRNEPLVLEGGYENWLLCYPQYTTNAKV

- Variants of: B1
- test-summary: peptide-phage display deep mutational scan (M13, 16-mer library, displayed with a C-terminal GGGSG linker encoded by the 3' flank) selected against the GST-tagged USP8 rhodanese domain, four rounds; NGS counts summed over selection …
- applied-conditions: with USP8 rhodanese domain (ubiquitin carboxyl-terminal hydrolase 8, residues 174-317), 10 µg GST-bait on MaxiSorp, pre-cleared on GST, 2 h at 4 °C, five washes with 0.05% Tween 20 in PBS, not graded, scale: average over two replicas of the peptide's fractional NGS count
measured-property: screen value

Known results for variants:
>  <mutation-key>
chain 1 E3T

>  <measured>
8.85e-05

$$$$
>  <mutation-key>
chain 1 S11E

>  <measured>
0.000128

$$$$
>  <mutation-key>
chain 1 G1F

>  <measured>
6.32e-06

$$$$
>  <mutation-key>
chain 1 P12Q

>  <measured>
6.32e-06

$$$$
>  <mutation-key>
chain 1 E3S

>  <measured>
0.000223

$$$$

A: chain 1 L6S
B: chain 1 G7D
// compare measured screen value, left A , right B , return larger # reply format: chosen label B

I: chain 1 L13M
II: chain 1 V5F
Of the two listed items, which has the higher screen value? First: I Second: II Indicate which entry you chose by stating its label. II

From: paper PMC12057046
